Record form. Attribute: protein stability index. Fill in for each entry.
B1: GLTSCR2 (parent)
chain: FQRRNMIEPRERAKFKRKYKVKLV

Variants of: B1
ASSAY REMARKS: protein stability index of a GFP-peptide fusion (GPS, HEK-293T) (PSI 1-6); higher = more stable;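 also: lentivirally expressed fusions sorted by FACS into six bins by GFP to DsRed ratio, PSI derived from sequencing read proportions per bin multiplied by bin number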
APPLIED CONDITIONS: c terminus: a fixed tail appended
Number only, no unit.

// recorded protein stability index for P9F : 2.4

// recorded protein stability index for P9A : 3.52

// recorded protein stability index for L23D : 3.1

// recorded protein stability index for A13K : 2.37

// recorded protein stability index for F1Y : 2.51

// recorded protein stability index for N5W : 2.1

// recorded protein stability index for F15Y : 2.7

// recorded protein stability index for Q2G : 2.3

// recorded protein stability index for M6H : 2.33

// recorded protein stability index for P9T : 1.99

// recorded protein stability index for K18L : 1.72

// recorded protein stability index for I7L : 1.99

// recorded protein stability index for I7M : 2.67

// recorded protein stability index for K16H : 2.32

// recorded protein stability index for Y19V : 2.63

// recorded protein stability index for R12E : 2.5

// recorded protein stability index for R12S : 1.84

// recorded protein stability index for R10M : 1.92

// recorded protein stability index for R10V : 1.58

// recorded protein stability index for K16M : 2.07

// recorded protein stability index for K18Y : 1.71

// recorded protein stability index for E8W : 1.91
